# Test system: NCI-H460
# Measurement description: NCI tumour cell line growth inhibition, 48 h
Activity calls are given as the source filed them. No stated cut-off is given here; in the data, active = GI50 up to about 1.1 µM and inactive = higher.
Quantity kind: GI50

[[record]]
molecule = "COc1ccc(OC)c(CCc2ccccc2CC(=O)O)c1"
assayed_system = "NCI-H460"
reported_result = "> 100 µM (inactive)"

[[record]]
molecule = "C[C@H]1CC[C@H](NC(=O)N(CCCl)N=O)CC1"
assayed_system = "NCI-H460"
reported_result = "39.1 µM (inactive)"

[[record]]
molecule = "CCN(CC)S(=O)(=O)c1ccc2[nH]c(NC(=O)OC)nc2c1"
assayed_system = "NCI-H460"
reported_result = "49.2 µM (inactive)"

[[record]]
molecule = "CC(=O)/C=C\\C1CC2C=CC1C2 (stereo unspecified)"
assayed_system = "NCI-H460"
reported_result = "44.1 µM (inactive)"

[[record]]
molecule = "CS(=O)(=O)c1ccc(COP(N)(=O)N(CCCl)CCCl)cc1 (stereo unspecified)"
assayed_system = "NCI-H460"
reported_result = "> 100 µM (inactive)"

[[record]]
molecule = "S=P(N1CC1)(N1CC1)N1CC1"
assayed_system = "NCI-H460"
reported_result = "5.33 µM (inactive)"


====

# Test system: 786-0
# Measurement description: NCI tumour cell line growth inhibition, 48 h
Calls of active or inactive are those of the source. No stated cut-off is given here; in the data, active = GI50 up to about 1.1 µM and inactive = higher.
Outcome codes: active, inactive

[[record]]
molecule = "Nc1nc(Cl)cc(NCC2(CO)CC(CCc3ccccc3)C2)n1 (centres undefined)"
assayed_system = "786-0"
category = "inactive"

[[record]]
molecule = "O=C(O)c1ccc(Nc2cnc3cc(C(F)(F)F)ccc3n2)cc1"
assayed_system = "786-0"
category = "inactive"

[[record]]
molecule = "C=C(CC)C(=O)c1ccc(OCC(=O)O)c(Cl)c1Cl"
assayed_system = "786-0"
category = "inactive"

[[record]]
molecule = "N#CCc1nc(C#N)c(N)o1"
assayed_system = "786-0"
category = "inactive"

[[record]]
molecule = "Cc1cc(S(N)(=O)=O)c(S/C(=N\\Nc2ccc([N+](=O)[O-])cc2)c2ccc(Cl)cc2)cc1Cl"
assayed_system = "786-0"
category = "inactive"

[[record]]
molecule = "COc1ccc2[nH]c(S(=O)(=O)N3CC(CCl)c4ccc(N)cc43)cc2c1 (centres undefined)"
assayed_system = "786-0"
category = "active"

[[record]]
molecule = "CC(C)c1ccc(O)c(=O)c(O)c1.CC(C)c1ccc(O)c(=O)cc1.CC(C)c1cccc(=O)c(O)c1.CC(C)c1ccccc(=O)c1O"
assayed_system = "786-0"
category = "active"

[[record]]
molecule = "C/C=C/c1cc2c(cc1O)CC[C@@H]1[C@@H]2CC[C@]2(C)[C@@H](O)CC[C@@H]12"
assayed_system = "786-0"
category = "active"

[[record]]
molecule = "COc1nc(N)c(C#N)c(C#N)c1C#N"
assayed_system = "786-0"
category = "inactive"

[[record]]
molecule = "O=C(O)c1c2c(cc3c1CC1(Cc4ccccc4C1=O)C3)CCC2 (centres undefined)"
assayed_system = "786-0"
category = "inactive"

[[record]]
molecule = "Cc1c2ccccc2c(/C=N/NC(=O)CSCC(=O)N/N=C/c2c3ccccc3c(C)c3ccccc23)c2ccccc12"
assayed_system = "786-0"
category = "inactive"

[[record]]
molecule = "COc1cc(C2[C@H]3C(=O)N(c4ccc(Cc5ccc(N6C(=O)[C@@H]7ON(c8ccccc8)C(c8cc(OC)c(OC)c(OC)c8)[C@@H]7C6=O)cc5)cc4)C(=O)[C@H]3ON2c2ccccc2)cc(OC)c1OC (some centres undefined)"
assayed_system = "786-0"
category = "inactive"

[[record]]
molecule = "C=C(Nc1ccc([N+](=O)[O-])cc1[N+](=O)[O-])c1c/c(=N\\NC(N)=S)c2ccccc2o1"
assayed_system = "786-0"
category = "inactive"

[[record]]
molecule = "NCC#CCNCCCN1CC1"
assayed_system = "786-0"
category = "inactive"

[[record]]
molecule = "COC(=O)CCC(=O)CC1CC(=O)C2CCCN12 (centres undefined)"
assayed_system = "786-0"
category = "inactive"

[[record]]
molecule = "O=C1NC2C(=O)N(Cc3ccccc3)C(=O)C2N1 (centres undefined)"
assayed_system = "786-0"
category = "inactive"

[[record]]
molecule = "O=C(NCCN1CCOCC1)c1ccc2cc(C(=O)N3CC(CCl)c4ccc([N+](=O)[O-])cc43)[nH]c2c1 (centres undefined)"
assayed_system = "786-0"
category = "inactive"

[[record]]
molecule = "CSc1nc(NC2OCC(OC(C)=O)C(OC(C)=O)C2OC(C)=O)c(/N=C(\\C)C(C)=O)c(=O)n1C (centres undefined)"
assayed_system = "786-0"
category = "inactive"

[[record]]
molecule = "CN(C)CC1CCCCCCCCCCCCC(CN(C)C)C1=O (centres undefined)"
assayed_system = "786-0"
category = "inactive"

